Test system: Plasmodium berghei
Assay: Screen against P. berghei liver stage (PbLuc), transformed with Luciferase, at 10uM
Assay type: functional, HepG2
Settings: tested at 10 uM
The campaign covered roughly 69,000 compounds. About 8,600 (12%) showed an effect of 50% or more. The full list was thinned out, with strong results kept by preference.
Assign classes using reported INHIBITION values and the ranges 1 = under 10%, 2 = from 10% up to 30%, 3 = 30% and over, please.

INSERT INTO assay_data (compound, label_class) VALUES
  ('COCCNC(=O)NC1(c2ccccc2F)CC1', 2),
  ('COCC1CCCN(c2cncc(OCc3ccccc3)n2)C1 (stereo unspecified)', 2),
  ('Cc1csc(C2CCCN(C(=O)Cn3ccccc3=O)C2)n1 (stereo unspecified)', 1),
  ('Cc1csc(C(=O)N2CCC(O)(CN3CCc4ccccc4C3)C2)c1 (stereo unspecified)', 3),
  ('Cc1ccc(C(=O)N2CCC(O)(CN3CCc4ccccc4C3)C2)s1 (stereo unspecified)', 3),
  ('CCC1=N[C@@]2(CC[C@@H]3CN(Cc4ccccc4F)C[C@@H]32)C(=O)N1', 2),
  ('CCOC1CCN(C(=O)NCc2ccc(C(=O)N(C)C(C)C)cc2)CC1', 2),
  ('O=C(c1cccs1)N1CCC(O)(CN2CCc3ccccc3C2)C1 (stereo unspecified)', 3),
  ('Cc1nn(CCNC(=O)c2cc(C3CC3)[nH]n2)c(C)c1Cl', 1),
  ('O=C(NCCc1cccs1)NCC(O)c1cccc(F)c1 (stereo unspecified)', 1),
  ('CN1CCN(C[C@H]2OC[C@@H]3CCN(Cc4ccsc4)C[C@@H]32)CC1', 2);

The reported numbers originate from ChEMBL document CHEMBL4513216.
